Measured pIC50 by item
# MEASURED ON: HMG-CoA reductase (Rattus norvegicus)
# Construct: solubilized enzyme preparations from rat liver microsomes
# Sequence (P51639 whole entry): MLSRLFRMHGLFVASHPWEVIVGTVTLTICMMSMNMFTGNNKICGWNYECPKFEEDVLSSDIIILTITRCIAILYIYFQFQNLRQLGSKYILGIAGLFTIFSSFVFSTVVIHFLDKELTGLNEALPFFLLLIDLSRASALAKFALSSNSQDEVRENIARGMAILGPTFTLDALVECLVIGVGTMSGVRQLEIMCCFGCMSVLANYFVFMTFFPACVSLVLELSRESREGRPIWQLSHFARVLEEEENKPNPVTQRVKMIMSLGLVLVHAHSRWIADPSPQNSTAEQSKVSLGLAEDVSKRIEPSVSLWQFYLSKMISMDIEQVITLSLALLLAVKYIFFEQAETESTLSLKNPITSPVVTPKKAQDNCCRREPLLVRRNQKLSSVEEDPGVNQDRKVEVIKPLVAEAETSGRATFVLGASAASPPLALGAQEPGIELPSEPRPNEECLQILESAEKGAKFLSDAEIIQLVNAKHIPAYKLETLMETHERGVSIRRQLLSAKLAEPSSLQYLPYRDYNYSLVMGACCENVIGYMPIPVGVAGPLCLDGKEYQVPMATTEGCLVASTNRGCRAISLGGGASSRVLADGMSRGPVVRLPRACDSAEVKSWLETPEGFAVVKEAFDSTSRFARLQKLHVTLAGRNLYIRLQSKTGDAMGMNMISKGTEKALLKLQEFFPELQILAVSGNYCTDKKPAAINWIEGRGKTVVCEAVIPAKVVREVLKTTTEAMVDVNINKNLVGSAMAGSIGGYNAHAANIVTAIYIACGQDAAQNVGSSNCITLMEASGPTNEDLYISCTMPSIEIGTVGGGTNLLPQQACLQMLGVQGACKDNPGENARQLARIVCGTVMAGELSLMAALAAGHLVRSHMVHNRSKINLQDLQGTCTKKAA
# ASSAY DETAILS: HMG-CoA reductase activity in solubilized enzyme preparations from rat liver microsomes (14C-HMG-CoA)
# STUDY CONDITIONS: Table 1; solubilized rat liver microsomal enzyme; mean of 3 parallel samples; read-out: IC50 (molar concentration of the compound required for 50% inhibition of HMG-CoA reductase)
Value format note: pIC50 is -log10 of concentration (mol/L); just state the number.

MOLECULE	pIC50
Cc1nc(C)c(/C=C/[C@@H](O)C[C@@H](O)CC(=O)O)c(-c2ccc(F)cc2)n1 [Example 13k]	6.30

[in] Which pIC50 is reported for this molecule? CC(C)c1nc(C2CCCCC2)cc(-c2ccc(F)cc2)c1/C=C/[C@@H](O)C[C@@H](O)CC(=O)O [Example 13s]
[out] 8.43

[in] Query O=C(O)C[C@H](O)C[C@H](O)/C=C/c1c(-c2ccc(F)cc2)cc(-c2ccccc2)nc1C1CC1 [Example 13ac] next
[out] 9.00

[in] Query CC(C)c1nc(-c2ccc(F)cc2)nc(-c2ccc(F)cc2)c1/C=C/[C@@H](O)C[C@@H](O)CC(=O)O [Example 13w] next
[out] 9.05

[in] Query CC(C)c1nc(-c2ccc(F)cc2)c(/C=C/[C@@H](O)C[C@@H](O)CC(=O)O)c(C(C)C)n1 [Example 13v] next
[out] 8.60

[in] Query CC(C)(C)c1nc(-c2ccccc2)cc(-c2ccc(F)cc2)c1/C=C/[C@@H](O)C[C@@H](O)CC(=O)O [Example 13g] next
[out] 7.74

[in] Query CC(C)c1nc(-c2ccc(O)cc2)cc(-c2ccc(F)cc2)c1/C=C/[C@@H](O)C[C@@H](O)CC(=O)O [Example 13ab] next
[out] 8.82

[in] Query Cc1nc(-c2ccccc2)cc(-c2ccc(F)cc2)c1/C=C/[C@@H](O)C[C@@H](O)CC(=O)O [Example 13c] next
[out] 7.42

[in] Query Cc1cc(-c2ccc(F)cc2)c(/C=C/[C@@H](O)C[C@@H](O)CC(=O)O)c(C)n1 [Example 13a] next
[out] 6.59
